Recorded values, source patent US7595313B2.

Counter-ions that a name gives are not always drawn.
VALUE_TYPE: melting point

>  <COMPOUND>
NS(=O)(=O)c1cc2c(cc1Cl)NCN(CC(=O)NCCCO[N+](=O)[O-])S2(=O)=O

>  <REPORTED_VALUE>
138 to 141 °C

$$$$
>  <COMPOUND>
NS(=O)(=O)c1cc2c(cc1Cl)NC(CC(=O)N(CCO[N+](=O)[O-])CCO[N+](=O)[O-])NS2(=O)=O (stereo not shown) [Example 49e]

>  <REPORTED_VALUE>
94 to 97 °C

$$$$
>  <COMPOUND>
Cc1c(C2Nc3cc(C(F)(F)F)c(S(N)(=O)=O)cc3S(=O)(=O)N2)no[n+]1[O-] (stereo not shown) (as salt: HCl)

>  <REPORTED_VALUE>
160 °C

$$$$
>  <COMPOUND>
NS(=O)(=O)c1cc2c(cc1C(F)(F)F)NC1(CCN(C(=O)CCCCO[N+](=O)[O-])CC1)NS2(=O)=O [Example 12c]

>  <REPORTED_VALUE>
178 °C (dec.)

$$$$
>  <COMPOUND>
NS(=O)(=O)c1cc2c(cc1Cl)NC(CCCC(=O)NCCO[N+](=O)[O-])=NS2(=O)=O

>  <REPORTED_VALUE>
168 to 170 °C

$$$$
>  <COMPOUND>
NS(=O)(=O)c1cc2c(cc1Cl)NCN(C/C=C/CO[N+](=O)[O-])S2(=O)=O [Example 67b]

>  <REPORTED_VALUE>
160 to 162 °C (dec.)

$$$$
>  <COMPOUND>
NS(=O)(=O)c1cc2c(cc1Cl)NCN(CC[C@H](CO[N+](=O)[O-])O[N+](=O)[O-])S2(=O)=O [Example 73b]

>  <REPORTED_VALUE>
158 to 162 °C

$$$$

---

Consider the following molecules and their measured melting point readings.

>  <MOLECULE>
CC1(C)CC(CC2Nc3cc(Cl)c(S(N)(=O)=O)cc3S(=O)(=O)N2)CC(C)(C)N1O (centres unmarked) [Example 76b]

>  <melting point>
238 to 240 °C

$$$$
>  <MOLECULE>
NS(=O)(=O)c1cc2c(cc1Cl)NCN(CC(=O)N(CCCO[N+](=O)[O-])CCCO[N+](=O)[O-])S2(=O)=O [Example 72b]

>  <melting point>
157 to 160 °C

$$$$
>  <MOLECULE>
Cc1c(CN2CNc3cc(Cl)c(S(N)(=O)=O)cc3S2(=O)=O)no[n+]1[O-] [Example 37c]

>  <melting point>
235 to 237 °C

$$$$
>  <MOLECULE>
CN(CCO[N+](=O)[O-])CC1Nc2cc(Cl)c(S(N)(=O)=O)cc2S(=O)(=O)N1 (centres unmarked) [Example 45]

>  <melting point>
175 to 180 °C

$$$$
>  <MOLECULE>
NS(=O)(=O)c1cc2c(cc1Cl)NC(c1cc(CO[N+](=O)[O-])cc(CO[N+](=O)[O-])c1)NS2(=O)=O (centres unmarked) [Example 50c]

>  <melting point>
121 to 124 °C

$$$$
>  <MOLECULE>
NS(=O)(=O)c1cc2c(cc1C(F)(F)F)NC(CCCCCO)NS2(=O)=O (centres unmarked) [Example 25b]

>  <melting point>
97 °C

$$$$
>  <MOLECULE>
NS(=O)(=O)c1cc2c(cc1Cl)NCN(CCO[N+](=O)[O-])S2(=O)=O [Example 51]

>  <melting point>
161 to 163 °C (dec.)

$$$$
>  <MOLECULE>
NS(=O)(=O)c1cc2c(cc1Cl)NC(CCC(=O)NCCOCCO[N+](=O)[O-])=NS2(=O)=O [Example 13]

>  <melting point>
175 to 178 °C

$$$$

---

Test system: Male Wistar rats
Test: Determination of the diuresis (urine volume over 6 hours after oral dosing)
Assay type: in vivo, rat
Details: p.o. 30 mg/kg in 0.5% Methocel, male Wistar rats, 6 hours, mean ± SEM, n=6 or 7
VALUE_TYPE: Urine collected in 6 hours (mL) (30 mg/kg)

>  <MOLECULE>
Cc1c(C2Nc3cc(C(F)(F)F)c(S(N)(=O)=O)cc3S(=O)(=O)N2)no[n+]1[O-] (stereo not shown)

>  <REPORTED_VALUE>
6.9

$$$$
>  <MOLECULE>
NS(=O)(=O)c1cc2c(cc1Cl)NC(CCCC(=O)NCCO[N+](=O)[O-])=NS2(=O)=O

>  <REPORTED_VALUE>
4.0

$$$$
>  <MOLECULE>
NS(=O)(=O)c1cc2c(cc1Cl)N[C@H](CCCCO[N+](=O)[O-])NS2(=O)=O (single isomer, unassigned) [17c (enantiomer 2)]

>  <REPORTED_VALUE>
7.8

$$$$
>  <MOLECULE>
Cc1c(C2Nc3cc(Cl)c(S(N)(=O)=O)cc3S(=O)(=O)N2)no[n+]1[O-] (stereo not shown)

>  <REPORTED_VALUE>
6.7

$$$$
>  <MOLECULE>
NS(=O)(=O)c1cc2c(cc1Cl)NC(CCCCCO)NS2(=O)=O (stereo not shown) [Example 24c]

>  <REPORTED_VALUE>
7.2

$$$$
>  <MOLECULE>
CC(C)(CO[N+](=O)[O-])C(=O)N1CCC2(CC1)Nc1cc(C(F)(F)F)c(S(N)(=O)=O)cc1S(=O)(=O)N2 [Example 19b]

>  <REPORTED_VALUE>
2.5

$$$$
>  <MOLECULE>
NS(=O)(=O)c1cc2c(cc1C(F)(F)F)NC1(CCN(C(=O)c3cccc(CO[N+](=O)[O-])c3)CC1)NS2(=O)=O [Example 15b]

>  <REPORTED_VALUE>
4.5

$$$$
>  <MOLECULE>
NS(=O)(=O)c1cc2c(cc1Cl)N=C(NC(=O)CCCCO[N+](=O)[O-])NS2(=O)=O

>  <REPORTED_VALUE>
3.8

$$$$
>  <MOLECULE>
NS(=O)(=O)c1cc2c(cc1Cl)N[C@@H](CCCCO[N+](=O)[O-])NS2(=O)=O (single isomer, unassigned) [17c (enantiomer 1)]

>  <REPORTED_VALUE>
7.0

$$$$
>  <MOLECULE>
NS(=O)(=O)c1cc2c(cc1C(F)(F)F)NC(CCCCCO[N+](=O)[O-])NS2(=O)=O (stereo not shown)

>  <REPORTED_VALUE>
5.7

$$$$

---

Listed here: items and their measured Urine collected in 6 hours (mL) (30 mg/kg).
Tested on: Male Wistar rats
Assay: Determination of the diuresis (urine volume over 6 hours after oral dosing)
Format: in vivo, rat
Conditions: p.o. 30 mg/kg in 0.5% Methocel, male Wistar rats, 6 hours, mean ± SEM, n=6 or 7
VALUE_TYPE: Urine collected in 6 hours (mL) (30 mg/kg)

>  <MOLECULE>
NS(=O)(=O)c1cc2c(cc1Cl)N=C(NC(=O)CCCCCO[N+](=O)[O-])NS2(=O)=O

>  <READOUT_UNITS>
mL

>  <REPORTED_VALUE>
4.5

$$$$
>  <MOLECULE>
CC(C)(C)OC(=O)N1CCC2(CC1)Nc1cc(C(F)(F)F)c(S(N)(=O)=O)cc1S(=O)(=O)N2 [Example 12a]

>  <READOUT_UNITS>
mL

>  <REPORTED_VALUE>
4.0

$$$$
>  <MOLECULE>
NS(=O)(=O)c1cc2c(cc1Cl)NC(CCC(=O)NCCOCCO[N+](=O)[O-])=NS2(=O)=O

>  <READOUT_UNITS>
mL

>  <REPORTED_VALUE>
2.2

$$$$
>  <MOLECULE>
NS(=O)(=O)c1cc2c(cc1Cl)NC(CCCO[N+](=O)[O-])NS2(=O)=O (centres unmarked)

>  <READOUT_UNITS>
mL

>  <REPORTED_VALUE>
6.2

$$$$
>  <MOLECULE>
NS(=O)(=O)c1cc2c(cc1Cl)NC(CCCCCO[N+](=O)[O-])NS2(=O)=O (centres unmarked)

>  <READOUT_UNITS>
mL

>  <REPORTED_VALUE>
7.6

$$$$
>  <MOLECULE>
NS(=O)(=O)c1cc2c(cc1Cl)NC(CCCCCO[N+](=O)[O-])=NS2(=O)=O [Example 20c]

>  <READOUT_UNITS>
mL

>  <REPORTED_VALUE>
3.0

$$$$
>  <MOLECULE>
NS(=O)(=O)c1cc2c(cc1Cl)NC(CCCCO)NS2(=O)=O (centres unmarked)

>  <READOUT_UNITS>
mL

>  <REPORTED_VALUE>
6.0

$$$$
>  <MOLECULE>
NS(=O)(=O)c1cc2c(cc1C(F)(F)F)NC(CCCO[N+](=O)[O-])NS2(=O)=O (centres unmarked)

>  <READOUT_UNITS>
mL

>  <REPORTED_VALUE>
5.3

$$$$
